- assay.summary: S. cerevisiae growth inhibition in restrictive medium, OD615, pilot screen, restrictive growth control, yeast lifespan reduction project (AID 706);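 also: modified DeaD lifespan yeast strain shifted to restrictive glucose medium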
- condition.details: OD615, 48 h, at 10 µM, active compounds read high
Activity calls are given as the source filed them.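 The calls were made as follows: active = growth inhibition above a set limit, 3 SD over mean compound inhibition, in both replicates (cut at about 43% in these data); inconclusive = above the limit in only one replicate; inactive = at or below the limit in both replicates.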
Task for the reader: assign each of the following molecules its reported growth inhibition.

Request: Check the records and state growth inhibition for COC(=O)C(C)Sc1nc2c(c(=O)n1-c1ccccc1)SCC2 (centres undefined)
Result: -4.13% (inactive)

Request: Check the records and state growth inhibition for Cc1ccc(C)c(Cn2c(CN(C)Cc3ccccc3)nc3c2c(=O)n(C)c(=O)n3C)c1
Result: -21.5% (inactive)

Request: Check the records and state growth inhibition for O=C(CN1C(=O)c2ccccc2S1(=O)=O)NCc1ccccc1Cl
Result: -12.6% (inactive)

Request: Check the records and state growth inhibition for CCOC(=O)c1ccc(N2Cc3cc(C)c(C)cc3C2)cc1O
Result: -7.42% (inactive)

---

- assay.summary: growth suppression of yeast trafficking mutant, preliminary HTS, modulators of trafficking downstream of Golgi apparatus project, 1536-format plate, OD 615 nm (AID 637)
- condition.details: yeast transport mutant growth, absorbance 615 nm, 18 h
The source made the active and inactive calls. Cut-off read from the data, not from the text of the source: active = inhibition above about 30%; inactive = the rest.
Could you please pick one outcome from this set? active, inactive

Request: Record lookup: outcome of this test for COCCCNC(=O)CC1Oc2ccccc2NC1=O (centres undefined) ?
Result: inactive

Request: Record lookup: outcome of this test for Cc1nnc(SCC(=O)Nc2sc3c(c2C#N)CCCC3)[nH]c1=O ?
Result: inactive

Request: Record lookup: outcome of this test for C/C=C/COC(=O)c1[nH]c2c(c1C)C(=O)CC(c1ccc(N(C)C)cc1)C2 (centres undefined) ?
Result: active

Request: Record lookup: outcome of this test for O=C(NCc1ccc2c(c1)OCO2)C1CCCN(S(=O)(=O)c2cccc3cccnc23)C1 (centres undefined) ?
Result: inactive

Request: Record lookup: outcome of this test for CC(=O)Nc1ccc(N=Cc2ccc[nH]2)cc1 ?
Result: inactive

Request: Record lookup: outcome of this test for CCOC(=O)/C(C#N)=C(/C)c1ccc(OC)cc1 ?
Result: inactive

Request: Record lookup: outcome of this test for CCSC1=C(C#N)C(c2ccccc2OC)CC(=O)N1 (centres undefined) ?
Result: inactive

Request: Record lookup: outcome of this test for CCC(C)NC(=O)CS(=O)(=O)Cc1nc(-c2cccc(OC)c2)oc1C (centres undefined) ?
Result: inactive

Request: Record lookup: outcome of this test for COc1cccc(C2CC(=O)Nc3cc4c(cc32)OCCO4)c1OC(C)C (centres undefined) ?
Result: inactive

Request: Record lookup: outcome of this test for CCOn1c(=O)c(=O)n(OCc2ccccc2)c2ccccc21 ?
Result: inactive

Request: Record lookup: outcome of this test for COc1ccc(-c2cnc(SCC(=O)Nc3ccc4c(c3)OCO4)n2Cc2ccco2)cc1 ?
Result: inactive

Request: Record lookup: outcome of this test for Cc1cc(NS(=O)(=O)c2ccc(NC(=O)COc3ccccc3C(C)C)cc2)no1 ?
Result: inactive

Request: Record lookup: outcome of this test for O=C1c2ccccc2C(Nc2ccc(F)c(Cl)c2)N1Cc1ccco1 (centres undefined) ?
Result: inactive

Request: Record lookup: outcome of this test for CCSc1oc(-c2ccco2)nc1S(=O)(=O)c1ccccc1 ?
Result: inactive

Request: Record lookup: outcome of this test for CCOC(=O)c1oc2c(CN3CCN(C)CC3)c(O)ccc2c(=O)c1-c1ccccc1OC ?
Result: inactive

Request: Record lookup: outcome of this test for CCN(CC)CCNC(=O)c1ccc(CS(=O)(=O)c2ccc(Br)cc2)o1 ?
Result: inactive

Request: Record lookup: outcome of this test for Cc1cccc(OCC(=O)N2CCN(C(=O)Cc3ccccc3)CC2)c1 ?
Result: inactive

Request: Record lookup: outcome of this test for CCN(CC)C(=O)C1CCCc2c1[nH]c1ccc(Cl)cc21 (centres undefined) ?
Result: active

Request: Record lookup: outcome of this test for CCc1cccc(NC(=O)CCc2nc(-c3cccs3)no2)c1 ?
Result: inactive

Request: Record lookup: outcome of this test for CCOC(=O)C(C)Sc1nnc(Cc2cc(=O)[nH]c(=O)[nH]2)n1-c1ccc(Cl)cc1 (centres undefined) ?
Result: inactive

Request: Record lookup: outcome of this test for Cn1ccnc1C(O)c1ccco1 (centres undefined) ?
Result: inactive

Request: Record lookup: outcome of this test for O=C1CCCc2c1cc(C(=O)NCCCN1CCOCC1)c(=O)n2-c1ccc(Cl)cc1 ?
Result: inactive

Request: Record lookup: outcome of this test for O=C1CC(c2ccccc2)CC(O)=C1C=NCCN1CCOCC1 (centres undefined) ?
Result: inactive

Request: Record lookup: outcome of this test for COc1ccc(CN2C(=O)CN=C2Nc2ccc(C)cc2C)cc1 ?
Result: inactive

Request: Record lookup: outcome of this test for CC1CCN(Cc2nc3c(c(=O)n(C)c(=O)n3C)n2Cc2cccc3ccccc23)CC1 ?
Result: inactive

Request: Record lookup: outcome of this test for CCOC(=O)C(C)(C)Sc1nc2c(cnn2-c2ccc(Cl)cc2)c(=O)[nH]1 ?
Result: inactive

Request: Record lookup: outcome of this test for CC(=O)NC(C)C(=O)OCC(=O)Nc1ccc(Br)cc1 (centres undefined) ?
Result: inactive

Request: Record lookup: outcome of this test for COc1ccc(C/C(N)=N/n2cnnc2)cc1Cl ?
Result: inactive

Request: Record lookup: outcome of this test for COC(=O)CN1C(=O)CC(C)(C)S(=O)c2ccccc21 (centres undefined) ?
Result: inactive

Request: Record lookup: outcome of this test for CCOC(=O)N1CCC(NC(=O)C2CCN(S(=O)(=O)c3cccc4cccnc34)CC2)CC1 ?
Result: inactive

Request: Record lookup: outcome of this test for COc1ccc(-n2ncc3c(N4CCC(C)CC4)ncnc32)cc1 ?
Result: inactive

Request: Record lookup: outcome of this test for Clc1cccc(N2CCN(Cc3nc(-c4ccccc4)no3)CC2)c1 ?
Result: inactive

Request: Record lookup: outcome of this test for CCN(CC)Cc1c(C(=O)OC)nnn1-c1nonc1N ?
Result: inactive

Request: Record lookup: outcome of this test for CC1CCc2nn(CC(=O)N3CCN(C(=O)c4ccco4)CC3)cc2C1 (centres undefined) ?
Result: inactive

Request: Record lookup: outcome of this test for COC(=O)Cn1c(=NC(=O)CSCC(=O)Nc2cc(C)on2)sc2ccccc21 ?
Result: inactive

Request: Record lookup: outcome of this test for CCOc1ccc(S(=O)(=O)N2CCN(c3ccc(C)cc3C)CC2)cc1 ?
Result: inactive

Request: Record lookup: outcome of this test for c1ccc2c(c1)nc(NCCN1CCOCC1)c1nncn12 ?
Result: inactive

Request: Record lookup: outcome of this test for COc1cccc(C2=NOC(C(=O)Nc3cc(C)nn3-c3ccccc3)C2)c1OC (centres undefined) ?
Result: inactive

Request: Record lookup: outcome of this test for COc1cccc(NC(=O)c2nc3nc(C)cc(C(F)F)n3n2)c1 ?
Result: inactive

Request: Record lookup: outcome of this test for CCN(CC)C1CCCCC1NS(=O)(=O)c1ccc(Cl)cc1 (centres undefined) ?
Result: inactive

Request: Record lookup: outcome of this test for CC1CCc2nn(CC(=O)NCCN3CCCCC3C)cc2C1 (centres undefined) ?
Result: inactive

Request: Record lookup: outcome of this test for COc1ccc(C2C(C(=O)N3CCC(C)CC3)c3ccccc3C(=O)N2C)cc1 (centres undefined) ?
Result: inactive

Request: Record lookup: outcome of this test for O=C(C1CCCN1S(=O)(=O)c1cccc2cccnc12)N1CCn2c1nc1ccccc12 (centres undefined) ?
Result: inactive

Request: Record lookup: outcome of this test for COc1ccc(-c2nc(C)c(C(C)=O)n2O)cc1OC ?
Result: inactive

---

Task for the reader: assign each of the following molecules its reported inhibition.
- assay.summary: RAM pathway blockade in budding yeast – dse1pr::URA3 reporter, 5-FOA selection, pilot screen (AID 869);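 also: 0% = DMSO wells with no growth and 100% = 10 µM 1-NA-PP1 with full growth; RAM network block rescues cells from 5-FOA so hits raise OD615 growth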
- condition.details: S. cerevisiae dse1pr::URA3 5-FOA growth, OD615, 2 d; at 10 µM; active compounds read high; strain carries analog-sensitive mutant Cbk1 kinase
The source made the active and inactive calls.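 The calls were made as follows: active = inhibition over a set limit, the all-compound mean plus 3 SD, in both replicate runs; inconclusive = over that limit in just one replicate run; inactive = at or under that limit in both runs.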

Request: Check the records and state inhibition for COc1ccc(-n2c(Cc3cccn3C)nnc2SCC(=O)Nc2ccc(Cl)cc2)cc1
Result: -0.125% (inactive)

Request: Check the records and state inhibition for CC1CCC(NC(=O)Cn2ncc3ccccc32)CC1 (stereo unspecified)
Result: 1.21% (inactive)

Request: Check the records and state inhibition for CCOc1ccccc1N(CC(=O)N1CCCCCC1)S(C)(=O)=O
Result: 0.65% (inactive)

Request: Check the records and state inhibition for COc1ccc(NC(=O)C2CCCN(S(=O)(=O)c3cccc4cccnc34)C2)cc1OC (stereo unspecified)
Result: 2.09% (inactive)

Request: Check the records and state inhibition for C=CCn1c(=O)c(C(=O)Nc2ccccc2OC)c(O)c2ccccc21
Result: 2.31% (inactive)

Request: Check the records and state inhibition for CCN1C(=O)c2cccc3c(NC(=O)c4ccc(S(=O)(=O)N(C)C)cc4)ccc1c23
Result: 0.195% (inactive)

Request: Check the records and state inhibition for Cc1ccc(C(=O)Nc2ccc(Cl)cn2)cc1S(=O)(=O)N1CCOCC1
Result: 1.39% (inactive)

Request: Check the records and state inhibition for CC(=N)C1=C(O)CC(C)(C)CC1=O
Result: 1.49% (inactive)

Request: Check the records and state inhibition for COC(=O)C1C(=O)c2c([nH]c(C(=O)OC3CCCCCC3)c2C)CC1C (stereo unspecified)
Result: 1.3% (inactive)

Request: Check the records and state inhibition for Cc1cccc(OCC(=O)N2CCN(C(=O)Cc3ccccc3)CC2)c1
Result: 0.285% (inactive)

Request: Check the records and state inhibition for CCCSCCCNC(=O)Cn1cc2c(n1)CCC(C)C2 (stereo unspecified)
Result: 0.775% (inactive)

Request: Check the records and state inhibition for Cc1cc(C)c2c(=O)n(CC(=O)NCCCN3CCOCC3)sc2n1
Result: 1.51% (inactive)

Request: Check the records and state inhibition for COC(=O)c1cc(COc2ccc3c4c(c(=O)oc3c2)CCCC4)c(C)o1
Result: 0.985% (inactive)

Request: Check the records and state inhibition for Cc1cc(C)nc(SCC(=O)N2CCCCC2)n1
Result: 2.34% (inactive)

Request: Check the records and state inhibition for c1nc(NCC2CCCO2)c2[nH]cnc2n1 (stereo unspecified)
Result: 1.3% (inactive)

Request: Check the records and state inhibition for CC(=O)NC(C)c1nc2ccccc2n1C(C)C (stereo unspecified)
Result: 3.16% (inactive)

Values compiled from PubChem BioAssay.
